- Test system: mPer2Luc MEF
- Protocol: PER2::LUC luminescence relative to vehicle control (fold of vehicle); higher = higher PER2::LUC reporter signal
- Assay Conditions: time after treatment 24 h; 10 µM
In all, about 5,300 compounds were measured (“PER2::LUC luminescence relative to vehicle control”: median about 0.96, highest 2% from about 1.3 on). The sample holds the highest values, similar compounds and a random draw of the others, so the mix is not that of the screen.
I would appreciate it if you labelled entries Criterion met when PER2::LUC luminescence is 1 or higher, otherwise Criterion not met.

Answered cases to consult:
[
  {
    "Molecule": "COc1cc(=O)oc(/C=C/C=C/C=C/C(C)=C/[C@@]2(C)O[C@H](C)[C@](C)(O)[C@H]2O)c1C",
    "Qualitative Label": "Criterion not met"
  },
  {
    "Molecule": "NC(=O)CI",
    "Qualitative Label": "Criterion met"
  },
  {
    "Molecule": "C[C@@H]1OC(=O)[C@H]2C[C@H]3CCCC[C@@H]3[C@@H](/C=C/[C@H]3CCC[C@H](C)N3C)[C@@H]12",
    "Qualitative Label": "Criterion not met"
  },
  {
    "Molecule": "CC[C@H](C)[C@@H]([C@@H](CC(=O)N1CCC[C@H]1[C@H](OC)[C@@H](C)C(=O)N[C@H](C)[C@@H](O)c1ccccc1)OC)N(C)C(=O)[C@@H](NC(=O)[C@@H](NC)C(C)C)C(C)C",
    "Qualitative Label": "Criterion not met"
  },
  {
    "Molecule": "NCCc1ccccc1",
    "Qualitative Label": "Criterion met"
  },
  {
    "Molecule": "COC1=CC(=O)O[C@@H](/C=C/c2ccc3c(c2)OCO3)C1",
    "Qualitative Label": "Criterion not met"
  }
]

Challenge: Form field: PER2::LUC luminescence at least 1? Entry: `COC1=CC(=O)O[C@@H](CCc2ccc3c(c2)OCO3)C1`
Response given: Criterion not met

Challenge: Then this molecule: `O=[N+]([O-])c1ccc([As](=O)(O)O)cc1`
Response given: Criterion met

Challenge: Next entry: `Cn1cnc(CCN)c1`
Response given: Criterion not met

Challenge: Next record, please: `COc1ccc(O)c(C(C)(C)C)c1.COc1ccc(O)cc1C(C)(C)C`
Response given: Criterion not met

Challenge: Further, for `CCCN1C[C@H](C)N([C@H](c2ccc(C(=O)N(CC)CC)cc2)c2cccc(OC)c2)C[C@H]1C` ?
Response given: Criterion not met

Challenge: Follow-up item: CCN(CC)C(=O)NC1CC2c3cccc4[nH]cc(c34)CC2N(C)C1 (stereo not given)
Response given: Criterion not met

Challenge: # repeat for `CC1(C)C(=O)N(c2ccc(C#N)c(C(F)(F)F)c2)C(=S)N1c1ccc(C(N)=O)c(F)c1`
Response given: Criterion met

Challenge: Repeat with `O=C(O)CF`
Response given: Criterion met

Challenge: Can you handle `C=C(C)c1cc2cc(C(C)=O)c(O)cc2o1` next?
Response given: Criterion met

Challenge: Please answer likewise for `COC1=CC(=O)O[C@@H](/C=C/c2ccccc2)C1`
Response given: Criterion met

====

In this section, each of the molecules is paired with its reported PER2::LUC luminescence.
- Tested on: mPer2Luc MEF
- Protocol: PER2::LUC luminescence relative to vehicle control (fold of vehicle); higher = higher PER2::LUC reporter signal
- Assay Conditions: time after treatment 30 h; 10 µM
Whole data set: some 5,300 compounds, median “PER2::LUC luminescence relative to vehicle control” near 0.96, cut for the highest 2% near 1.3. Many of the other results were omitted from the sample, so the highest values are more common in it than they were.
// keep it numeric: no unit symbol after the value

Consider the worked cases shown below.
[
  {
    "Molecule": "COc1ccc(O)c(C(C)(C)C)c1.COc1ccc(O)cc1C(C)(C)C",
    "Test Value": 1.18
  },
  {
    "Molecule": "CCCN1C[C@H](C)N([C@H](c2ccc(C(=O)N(CC)CC)cc2)c2cccc(OC)c2)C[C@H]1C",
    "Test Value": 0.899
  },
  {
    "Molecule": "O=C(O)CF",
    "Test Value": 1.08
  },
  {
    "Molecule": "CC1=C[C@]23C(=O)[C@@H](C=C(CO)[C@@H](O)[C@]2(O)[C@H]1O)[C@H]1[C@@H](C[C@H]3C)C1(C)C",
    "Test Value": 0.957
  },
  {
    "Molecule": "C=CCc1ccc(OC)cc1",
    "Test Value": 0.968
  }
]

Challenge: Look up PER2::LUC luminescence for this molecule: NC(CCCCCP(=O)(O)O)C(=O)O (racemic)
Response given: 1.09

Challenge: # iterate: CCN(CC)C(=O)NC1CC2c3cccc4[nH]cc(c34)CC2N(C)C1 (stereo unspecified)
Response given: 0.986

====

- System: mPer2Luc MEF
- Protocol: PER2::LUC luminescence relative to vehicle control (fold of vehicle); higher = higher PER2::LUC reporter signal
- Assay Conditions: time after treatment 24 h; 10 µM
The full ranking holds about 5,300 compounds; the median of “PER2::LUC luminescence relative to vehicle control” is about 0.96, and the highest 2% start at about 1.3. Only a selection was taken, and the highest values are over-represented in it overall.
Readout Kind: PER2::LUC luminescence
Number, no unit, nothing else.

Below: 3 molecules and their reported PER2::LUC luminescence.
[
  {
    "Smiles Representation": "Cc1ncc(C[n+]2csc(CCO)c2C)c(=O)[nH]1",
    "Test Value": 1.01
  },
  {
    "Smiles Representation": "C=CCc1ccc(OC)cc1",
    "Test Value": 0.993
  },
  {
    "Smiles Representation": "CC1=C[C@]23C(=O)[C@@H](C=C(CO)[C@@H](O)[C@]2(O)[C@H]1O)[C@H]1[C@@H](C[C@H]3C)C1(C)C",
    "Test Value": 0.981
  }
]

We now examine a further molecule.
Challenge: // returns reported PER2::LUC luminescence for input `N=C(N)NCCCCCCCCCCNC(=N)N`
Response given: 0.972

====

In this section, each of the compounds is paired with its reported PER2::LUC luminescence.
- Tested on: mPer2Luc MEF
- Protocol: PER2::LUC luminescence relative to vehicle control (fold of vehicle); higher = higher PER2::LUC reporter signal
- Assay Conditions: time after treatment 30 h; 10 µM
Whole data set: some 5,300 compounds, median “PER2::LUC luminescence relative to vehicle control” near 0.96, cut for the highest 2% near 1.3. Only a selection was taken, and the highest values are over-represented in it overall.
Format: numeric value only, no unit, no commentary.

[
  {
    "Compound": "NCC(CC(=O)O)c1ccc(Cl)s1 (racemic)",
    "Test Value": 0.985
  },
  {
    "Compound": "Cc1o[nH]c(=O)c1CC(N)C(=O)O (racemic)",
    "Test Value": 0.984
  },
  {
    "Compound": "O=C(O)[C@@H]1C[C@H]2C[C@@H](CP(=O)(O)O)CC[C@H]2CN1",
    "Test Value": 0.966
  },
  {
    "Compound": "NCCc1ccccc1",
    "Test Value": 1.04
  },
  {
    "Compound": "COc1c2c3c4c(c(OC)c(=O)c5c(O)cc(OC)c(c6c(OC)cc(O)c(c1=O)c63)c54)[C@@H](C(C)=O)[C@@](C)(O)C2",
    "Test Value": 1.06
  },
  {
    "Compound": "CCCCCCC(=O)CCCCCC/C=C/C[C@@H](O)[C@H](O)[C@@](N)(CO)C(=O)O",
    "Test Value": 1.35
  }
]

Challenge: GET /values?readout=PER2::LUC luminescence&system=mPer2Luc MEF&item= C=CCN1CC[C@@]2(C)c3cc(O)ccc3C[C@@H]1C2C (single isomer, unassigned; (+))
Response given: 0.939

Challenge: Let us now turn to OCC1C(O)C(O)C2C(O)CCN12 (centres undefined)
Response given: 1.08

Challenge: Okay, and `COc1cc2c(cc1F)C(c1ccccc1Cl)=Nc1c(n[nH]c1C)N2` ?
Response given: 0.367

Challenge: Ok, now `CN(C(=O)Cc1ccc(Cl)c(Cl)c1)[C@H](CN1CCCC1)c1cccc(N=C=S)c1`
Response given: 0.687

Challenge: Also, `CC1(C)C(=O)N(c2ccc(C#N)c(C(F)(F)F)c2)C(=S)N1c1ccc(C(N)=O)c(F)c1` please.
Response given: 1.11

====

- Test system: mPer2Luc MEF
- Protocol: PER2::LUC luminescence relative to vehicle control (fold of vehicle); higher = higher PER2::LUC reporter signal
- Assay Conditions: time after treatment 30 h; 10 µM
The full ranking holds about 5,300 compounds; the median of “PER2::LUC luminescence relative to vehicle control” is about 0.96, and the highest 2% start at about 1.3. Many of the other results were omitted from the sample, so the highest values are more common in it than they were.
Readout Kind: PER2::LUC luminescence

Known PER2::LUC luminescence results, listed for orientation:
[
  {
    "Smiles Representation": "COC(N)=O",
    "Readout Kind": "PER2::LUC luminescence",
    "Test Value": 1.01
  },
  {
    "Smiles Representation": "NCCc1c[nH]c2ccc(O)cc12",
    "Readout Kind": "PER2::LUC luminescence",
    "Test Value": 0.97
  }
]

// below: PER2::LUC luminescence requested for another compound
Challenge: What does the record list as PER2::LUC luminescence for `Cc1ncc(C[n+]2csc(CCO)c2C)c(=O)[nH]1` ?
Response given: 0.895
